# System: IGROV-1
# assayText: NCI tumour cell line growth inhibition, 48 h
Calls of active or inactive are those of the source. No stated cut-off is given here; in the data, active = GI50 up to about 1.1 µM and inactive = higher.

- compound: "Cc1ccc2c(O)cc(-c3sccc3C)nc2n1"
  GI50: "0.625 µM (active)"
- compound: "CCC(=O)OCN(C)c1nc(N(C)COC(=O)CC)nc(N(C)COC(=O)CC)n1"
  GI50: "> 100 µM (inactive)"
- compound: "CN1C(=S)CSc2ccccc21"
  GI50: "> 100 µM (inactive)"
- compound: "COc1ccc(N2C(=O)C(Cl)C2c2cc3cc(Br)ccc3nc2Cl)cc1 (configuration not stated)"
  GI50: "5.12 µM (inactive)"
- compound: "O=C1c2ccccc2-c2nnc(-c3ccccc3)cc21"
  GI50: "> 10 µM (inactive)"
- compound: "CC1(C)C=CC(=O)C(O)C(C)(C)C1=O (configuration not stated)"
  GI50: "89.1 µM (inactive)"
- compound: "C=CCN1C(=O)CC1N(CC=C)S(=O)(=O)c1ccc(C)cc1 (configuration not stated)"
  GI50: "> 100 µM (inactive)"
- compound: "CCOC(=O)c1sc2nc(SC)nc3c2c1NC(=O)CN3c1cccc(F)c1"
  GI50: "61.8 µM (inactive)"
- compound: "Cc1c2ccncc2c(C)c2c1[nH]c1ccccc12"
  GI50: "0.729 µM (active)"
- compound: "N=C(N)NS(=O)(=O)c1ccc(NCc2c3ccccc3nc3ccccc23)cc1"
  GI50: "23.4 µM (inactive)"
- compound: "O=C(NCCCl)O/N=C/c1cccnc1"
  GI50: "> 100 µM (inactive)"
- compound: "Cc1ccc(-c2cc(-c3ccc(Cl)cc3)nc(/N=C3\\C(=O)N(CN4CCOCC4)c4ccccc43)n2)cc1"
  GI50: "15.2 µM (inactive)"
- compound: "COC(=O)[C@]1(C)CCC[C@@]2(C)C1CCC1=CC3(C(C)C)CCC12OO3 (some centres not stated)"
  GI50: "> 100 µM (inactive)"
- compound: "O=C1CN=C(C[N+](=O)[O-])c2ccccc21"
  GI50: "> 100 µM (inactive)"
- compound: "CCN1c2ccccc2-c2c3c1cc(C)cc3c1ccccc1[n+]2CC"
  GI50: "1.66 µM (inactive)"
- compound: "C=C1c2nc3ccccc3n2C=C(c2ccc(OC)cc2)N1c1ccccc1"
  GI50: "5.85 µM (inactive)"
- compound: "O=S(=O)(O)c1ccc2c(/N=N/c3cccc4ccccc34)c(O)c(S(=O)(=O)O)cc2c1"
  GI50: "> 100 µM (inactive)"
- compound: "CCc1ccc(COC(=O)C2=C(C)NC(C)=C(C(=O)OCc3ccc(CC)cn3)C2C2=COCCO2)nc1"
  GI50: "39.8 µM (inactive)"
- compound: "C/C(=C\\[Si](C)(C)c1ccco1)C(C)(O)[C@H](C)O (some centres not stated)"
  GI50: "> 100 µM (inactive)"
- compound: "CC(=O)NC1C(OCc2ccccc2)OC(COC(=O)CCCCCCCCCCNc2ccc([N+](=O)[O-])c3[nH]c4ccccc4c(=O)c23)C(O)C1OC(C)C(=O)NC(C)C(=O)NC(CCC(N)=O)C(=O)OCc1ccccc1 (configuration not stated)"
  GI50: "> 100 µM (inactive)"
- compound: "CN(C)/N=N/c1ccc(NC=O)cc1"
  GI50: "> 100 µM (inactive)"
- compound: "Oc1cn(-c2ccc(Cl)cc2)nc1-c1nnc(-c2ccccc2)o1"
  GI50: "0.989 µM (active)"

* * *

# System: CCRF-CEM
# assayText: NCI tumour cell line growth inhibition, 48 h
Active and inactive are the calls of the source. Rule as the data show it: active = GI50 up to about 1.1 µM and inactive = higher.
Labels: y for active, n for inactive

- molecule: "CCn1c(=O)c(C(=O)O)c(Cl)c2cc3c(cc21)OCO3"
  category: "n"
- molecule: "Clc1ccc(/C=N/C23CC4CC(CC(C4)C2)C3)c(Cl)c1"
  category: "n"
- molecule: "O=C1c2ccccc2C(O)(C(=O)O)C1(O)CC=C(Cl)Cl (stereo unspecified)"
  category: "n"
- molecule: "O=C(c1ccccc1)c1c(CC(O)c2ccccc2)n(C(=O)c2ccccc2)c2ccccc12 (stereo unspecified)"
  category: "n"
- molecule: "CN(C)c1cccc(/C=C(\\C#N)c2ccccc2)c1"
  category: "y"
- molecule: "C/C(=N\\NC(=O)CC(=O)Nc1ccc(Cl)cc1)c1cc2ccccc2oc1=O"
  category: "n"
- molecule: "CCN(CC)c1ccc(C(=C2C=CC(=[N+](CC)CC)C=C2)c2ccc(N(CC)CC)cc2)cc1"
  category: "y"
- molecule: "C/C(=N\\n1c(Cc2ccccc2)n[nH]c1=O)c1ccccc1"
  category: "n"
- molecule: "C=CCCC1(O)C(O)C(CO)O[C@H](O[C@@]2(CO)OC(CO)C(O)C2O)C1O (stereo partly specified)"
  category: "n"
- molecule: "CC1=CC2(C)C=C[C@@H]1C(=O)[C@@]1(C)CC[C@@](O)(C(C)C)[C@H]1CC2"
  category: "n"
- molecule: "COC(=O)C1Cc2c([nH]c3ccccc23)C=N1 (stereo unspecified)"
  category: "n"

* * *

# System: HOP-92
# assayText: NCI tumour cell line growth inhibition, 48 h
Activity calls are given as the source filed them. No stated cut-off is given here; in the data, active = GI50 up to about 1.1 µM and inactive = higher.
Labels: active, inactive

- molecule: "CNC(=S)N/N=C(\\C)c1nc2cccnc2[nH]1"
  category: "inactive"
- molecule: "NC(=O)c1cc([N+](=O)[O-])cc([N+](=O)[O-])c1 [NITROMIDE]"
  category: "inactive"
- molecule: "C=C1c2nc3ccccc3n2C=C(c2ccc(OC)cc2)N1c1ccccc1"
  category: "inactive"
- molecule: "Cc1ccc2c(O)cc(-c3sccc3C)nc2n1"
  category: "inactive"
- molecule: "Cc1nnc2nc(-c3ccc(Cl)cc3Cl)cc(-c3ccc(Cl)cc3)n12"
  category: "inactive"
- molecule: "CC(C)OC(=O)OCSc1ccccc1/N=C/c1cccc([N+](=O)[O-])c1"
  category: "inactive"
- molecule: "CC(=O)C(C(C)=O)[C@H]1OC(C)(C)O[C@H]1[C@H]1COC(C)(C)O1"
  category: "inactive"
- molecule: "CC(C)(C)O/N=C/c1cc(NC(=S)c2ccsc2)ccc1Cl"
  category: "inactive"
- molecule: "C/C=C(\\C)C(=O)OC1C2C(C)=CC(=O)C(O)C2(C)C2C3(O)OCC24C1OC(=O)C(OC(C)=O)C4C(C)C3O (stereo not given)"
  category: "active"
- molecule: "COc1ccc(C(SCCO)(c2ccccc2)c2ccc(OC)cc2)cc1"
  category: "inactive"

* * *

# System: SK-MEL-5
# assayText: NCI tumour cell line growth inhibition, 48 h
Active and inactive are the calls of the source. Rule as the data show it: active = GI50 up to about 1.1 µM and inactive = higher.
Collected GI50 values appear next to each entry.
valueType: GI50

- compound: "CC(C)(C)c1ccc(C(C)(C)C)c(N2C(=O)C3ON=C(c4ccc([N+](=O)[O-])cc4)C3C2=O)c1 (configuration not stated)"
  testValue: "> 25 µM (inactive)"
- compound: "C/C(Cl)=N\\OC(=O)Nc1ccc(C)cc1"
  testValue: "17.7 µM (inactive)"
- compound: "c1ccc(SC(Sc2ccccc2)c2ccc3c(c2)OCO3)cc1"
  testValue: "> 100 µM (inactive)"
- compound: "Cc1ccc(Oc2ccc(C(=O)c3cccc(C(=O)c4ccc(Oc5ccc(C)cc5)cc4)n3)cc2)cc1"
  testValue: "> 100 µM (inactive)"
- compound: "CCOc1ccc(N/C(=C(/C(Cl)=C(/Cl)Nc2ccccc2)[N+](=O)[O-])n2nnc3ccccc32)cc1"
  testValue: "17.7 µM (inactive)"
- compound: "CCOC(=O)C(NC(C)=O)(Nc1ccc(S(N)(=O)=O)cc1)C(F)(F)F (configuration not stated)"
  testValue: "> 100 µM (inactive)"
- compound: "COc1ccc(N(CC(=O)O)S(=O)(=O)c2ccccc2)cc1"
  testValue: "> 100 µM (inactive)"
- compound: "CN1C2CCC1/C(=C/c1cccc3c1OCO3)C(=O)/C2=C\\c1cccc2c1OCO2"
  testValue: "37.9 µM (inactive)"
- compound: "C/C(=N\\Nc1nc2ccccc2s1)c1cc2ccccc2cn1"
  testValue: "3.18 µM (inactive)"
- compound: "COC(=O)[C@]1(C)CCC[C@@]2(C)C1CCC1=CC3(C(C)C)CCC12OO3 (some centres not stated)"
  testValue: "31.1 µM (inactive)"
- compound: "CCCNC(C#N)c1ccc(C(C#N)NCCC)cc1 (configuration not stated)"
  testValue: "> 100 µM (inactive)"
- compound: "CN(C)/N=N/c1ccc(NC=O)cc1"
  testValue: "> 100 µM (inactive)"
- compound: "Clc1cc2nsnc2c(Cl)n1"
  testValue: "16.9 µM (inactive)"
- compound: "O=C(N/C(=C/c1ccc(Cl)cc1)c1nc2ccccc2c(=O)n1Nc1ccc([N+](=O)[O-])cc1[N+](=O)[O-])c1ccccc1"
  testValue: "> 100 µM (inactive)"
- compound: "C=C1C(=O)OC2C1C(OC(=O)/C(C)=C/C)CC(O)(CCl)C1C(O)C=C(C)C21O (configuration not stated)"
  testValue: "11 µM (inactive)"
- compound: "COCCOCN(C(=O)C1=CCC2(CC1)OCCO2)c1ccccc1I"
  testValue: "> 50 µM (inactive)"
- compound: "N#Cc1nc(COCCOCc2ccc(F)cc2)oc1N"
  testValue: "> 100 µM (inactive)"
- compound: "C/C(=C\\[Si](C)(C)c1ccco1)C(C)(O)[C@H](C)O (some centres not stated)"
  testValue: "40.7 µM (inactive)"
- compound: "CC(=O)N(C)c1ccc(Nc2ccnc3ccc4nn(C)nc4c23)cc1"
  testValue: "19.9 µM (inactive)"
- compound: "CN(C)c1ccc(/C=C2\\Oc3ccccc3C2=O)cc1"
  testValue: "> 100 µM (inactive)"
- compound: "CC1(C)C=CC(=O)C(O)C(C)(C)C1=O (configuration not stated)"
  testValue: "> 100 µM (inactive)"
- compound: "COC(=O)CCC(NC(=S)N/N=C(\\C)c1nccs1)C(=O)OC (configuration not stated)"
  testValue: "36.4 µM (inactive)"
